tested_on: T1, S. mutans ComD protein (histidine kinase) (Streptococcus mutans)
T1 chain: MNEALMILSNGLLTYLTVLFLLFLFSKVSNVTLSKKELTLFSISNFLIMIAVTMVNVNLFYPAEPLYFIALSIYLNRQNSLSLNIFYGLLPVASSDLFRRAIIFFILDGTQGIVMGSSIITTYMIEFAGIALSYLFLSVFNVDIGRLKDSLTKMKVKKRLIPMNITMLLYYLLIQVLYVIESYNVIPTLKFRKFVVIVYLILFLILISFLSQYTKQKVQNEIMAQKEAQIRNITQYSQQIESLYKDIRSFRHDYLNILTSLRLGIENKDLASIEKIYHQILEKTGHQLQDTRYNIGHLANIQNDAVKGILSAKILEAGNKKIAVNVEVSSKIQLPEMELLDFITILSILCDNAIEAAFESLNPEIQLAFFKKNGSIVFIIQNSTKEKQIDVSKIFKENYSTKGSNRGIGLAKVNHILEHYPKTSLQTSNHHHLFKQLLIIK
assay_remarks: cell-based or functional assay
result_type: Transformation efficiency (vs no CSP), S. mutans wild-type UA159, 5 µg/ml peptide

binder | recorded_result
SGSLSTFFALFNRSFTQALGK [Peptide analog C2] | 32 fold increase (vs no CSP)
SGSLTFFRLFNRSFTQALGK [Peptide analog E1] | 791 fold increase (vs no CSP)
SGSLSTFFRLFNASFTQALGK [Peptide analog E2] | 252 fold increase (vs no CSP)
SGSLSTFFRLFNVSFTQALGK [Peptide analog D2] | 99 fold increase (vs no CSP)
SGSLSTFFRLFNRSFTALGK [Peptide analog A2] | 125 fold increase (vs no CSP)
SGSLSTFFRLFNRSFTQALGV [Peptide analog F2] | 543 fold increase (vs no CSP)
SGSLSTFFVLFNRSFTQALGK [Peptide analog B2] | 4 fold increase (vs no CSP)
